Where these numbers come from: the MegaScale stability set (Tsuboyama et al. 2023)

B1: EEHEE_rd4_0363 (parent)
chain: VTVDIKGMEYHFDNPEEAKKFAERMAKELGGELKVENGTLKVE

Variants of: B1
Test: folding stability dG (cDNA display proteolysis); higher = more stable
Conditions: PBS, room temperature
MEASUREMENT_LABEL: folding stability dG

> print(dat)
                              input.sequence      measurement
 1  GTVDIKGMEYHFDNPEEAKKFAERMAKELGGELKVENGTLKVE [V1G]   0.889 kcal/mol
 2  VTVDIKGMEYHFDNPEEAKKFAERMWKELGGELKVENGTLKVE [A26W]    1.48 kcal/mol
 3  VTVDIKGMEYHFDNPEEAKKFAERMQKELGGELKVENGTLKVE [A26Q]     1.3 kcal/mol
 4  VTVDIKGLEYHFDNPEEAKKFAERMAKELGGELKVENGTLKVE [M8L]    1.93 kcal/mol
 5  VTVDIKGIEYHFDNPEEAKKFAERMAKELGGELKVENGTLKVE [M8I]    2.46 kcal/mol
 6  VTVDIKGMEYHFDNAEEAKKFAERMAKELGGELKVENGTLKVE [P15A]    2.19 kcal/mol
 7  VTVDIKGMEYHFDNPEEANKFAERMAKELGGELKVENGTLKVE [K19N]    1.38 kcal/mol
 8  VTVDIKGMEYHFDNPEEAKKFAERMAKELGGELKVENGTLKVF [E43F]    2.75 kcal/mol
 9  VTVDICGMEYHFDNPEEAKKFAERMAKELGGELKVENGTLKVE [K6C]    3.13 kcal/mol
10  VTVKIKGMEYHFDNPEEAKKFAERMAKELGGELKVENGTLKVE [D4K]    2.77 kcal/mol
11  VTVDIKGMEYHFDNPEEAKKFAERMAKELGGEPKVENGTLKVE [L33P]   0.732 kcal/mol
12  VTVDIKGMEYHFDNPEEAKKFAERMAKELGGELKVENGTQKVE [L40Q]   0.884 kcal/mol
13  VTVDIKGMEYHFDNPEEAKKFAESMAKELGGELKVENGTLKVE [R24S]    1.72 kcal/mol
14  VTVDINGMEYHFDNPEEAKKFAERMAKELGGELKVENGTLKVE [K6N]    2.84 kcal/mol
15  VTVDIKGMEYHFDNPEEAKKFAEREAKELGGELKVENGTLKVE [M25E]   0.574 kcal/mol
16  VTVDIKGMEYHFDNPEEAKKFAERMAKELGGELKVENGWLKVE [T39W]    1.66 kcal/mol
17  VTVDIKDMEYHFDNPEEAKKFAERMAKELGGELKVENGTLKVE [G7D]   0.499 kcal/mol
18  VTVDIKGMEYHFDNPEEAKKFAERMAKEIGGELKVENGTLKVE [L29I]    1.57 kcal/mol
19  VTVDIKGMEYHFDNPEWAKKFAERMAKELGGELKVENGTLKVE [E17W]   0.794 kcal/mol
20  VTVDIKGMEEHFDNPEEAKKFAERMAKELGGELKVENGTLKVE [Y10E]  -0.466 kcal/mol
21  VTVDIKGMEYHFDNPEEAKKFAERMAKELGGELKVENGTLVVE [K41V]    2.02 kcal/mol
22  VTVDIKGMEYHFDNPEEAKKFAERMAKELGGELQVENGTLKVE [K34Q]    1.42 kcal/mol
23  VTFDIKGMEYHFDNPEEAKKFAERMAKELGGELKVENGTLKVE [V3F]   0.603 kcal/mol
24  VTVDIKGMEYHFDNPEEAKKFAERMAKELGGELKVENGALKVE [T39A]     1.6 kcal/mol
25  VTVDIKGMEYHFDNPEEAKKFASRMAKELGGELKVENGTLKVE [E23S]    1.08 kcal/mol
26  VTVDIKGMEYHFDNPEEAKKFAERMAKELGGELPVENGTLKVE [K34P]   0.802 kcal/mol
27  VTVDIKGMEYHFDAPEEAKKFAERMAKELGGELKVENGTLKVE [N14A]   0.941 kcal/mol
28  VTVDIKGMEYHFDNPEEAKKFAERMAKELGGELKVENGTLLVE [K41L]    1.62 kcal/mol
29  VTVLIKGMEYHFDNPEEAKKFAERMAKELGGELKVENGTLKVE [D4L]     3.5 kcal/mol
30  VTVDIKGMEYHFDNPEEAKKFAERMAKELGGELNVENGTLKVE [K34N]    1.41 kcal/mol
31  VTVDPKGMEYHFDNPEEAKKFAERMAKELGGELKVENGTLKVE [I5P]  -0.167 kcal/mol
32  VTVDIKGMEYHFDNPEEAKKFAERMAKELGPELKVENGTLKVE [G31P]   0.726 kcal/mol
33  VTVDIKGMEYHFDNPEEAKKFAERMAMELGGELKVENGTLKVE [K27M]    2.19 kcal/mol
